# Tested on: Plasmodium falciparum TM91C235
# Protocol summary: In vitro antimalarial [3H]-hypoxanthine incorporation assay, TM91C235
# Type: cell-based
# Assay conditions: Plasmodium falciparum; P. falciparum TM91C235 (multiple drug resistant isolate), 72 hours exposure
Classify: T when IC50 is strictly less than 0.1 µg/mL; F when IC50 is not.

[[record]]
smiles_input = "CC[C@H]1OC(=O)[C@H](C)[C@@H](O[C@H]2C[C@@](C)(OC)[C@@H](O)[C@H](C)O2)[C@H](C)[C@@H](O[C@@H]2O[C@H](C)C[C@H](N(C)C)[C@H]2O)[C@](C)(O)C[C@@H](C)CN(CCCNC(=S)NC(=O)c2ccccc2)[C@H](C)[C@@H](O)[C@]1(C)O"
measurement_target = "Plasmodium falciparum TM91C235"
class_assignment = "F"

[[record]]
smiles_input = "CCOC(=O)CCN(CCCN1C[C@H](C)C[C@@](C)(O)[C@H](O[C@@H]2O[C@H](C)C[C@H](N(C)C)[C@H]2O)[C@@H](C)[C@H](O[C@H]2C[C@@](C)(OC)[C@@H](O)[C@H](C)O2)[C@@H](C)C(=O)O[C@H](CC)[C@@](C)(O)[C@H](O)[C@H]1C)C(=S)NCCCc1ccccc1"
measurement_target = "Plasmodium falciparum TM91C235"
class_assignment = "T"

[[record]]
smiles_input = "CC[C@H]1OC(=O)[C@H](C)[C@@H](O[C@H]2C[C@@](C)(OC)[C@@H](O)[C@H](C)O2)[C@H](C)[C@@H](O[C@@H]2O[C@H](C)C[C@H](N(C)C)[C@H]2O)[C@](C)(O)C[C@@H](C)CN(CCCNC(=S)Nc2ccccc2F)[C@H](C)[C@@H](O)[C@]1(C)O.O=CO"
measurement_target = "Plasmodium falciparum TM91C235"
class_assignment = "F"

[[record]]
smiles_input = "CC[C@H]1OC(=O)[C@H](C)[C@@H](O[C@H]2C[C@@](C)(OC)[C@@H](O)[C@H](C)O2)[C@H](C)[C@@H](O[C@@H]2O[C@H](C)C[C@H](N(C)C)[C@H]2O)[C@](C)(O)C[C@@H](C)CN(CCCNC(=O)NCC2CCCCC2)[C@H](C)[C@@H](O)[C@]1(C)O"
measurement_target = "Plasmodium falciparum TM91C235"
class_assignment = "F"

[[record]]
smiles_input = "CC[C@H]1OC(=O)[C@H](C)[C@@H](O[C@H]2C[C@@](C)(OC)[C@@H](O)[C@H](C)O2)[C@H](C)[C@@H](O[C@@H]2O[C@H](C)C[C@H](N(C)C)[C@H]2O)[C@](C)(O)C[C@@H](C)CN(CCCNC(=S)Nc2ccc(N(C)C)c3ccccc23)[C@H](C)[C@@H](O)[C@]1(C)O.O=CO"
measurement_target = "Plasmodium falciparum TM91C235"
class_assignment = "F"

[[record]]
smiles_input = "CC[C@H]1OC(=O)[C@H](C)[C@@H](O[C@H]2C[C@@](C)(OC)[C@@H](O)[C@H](C)O2)[C@H](C)[C@@H](O[C@@H]2O[C@H](C)C[C@H](N(C)C)[C@H]2O)[C@](C)(O)C[C@@H](C)CN(CCCNC(=O)Nc2ccc(Cl)cc2)[C@H](C)[C@@H](O)[C@]1(C)O.O=CO"
measurement_target = "Plasmodium falciparum TM91C235"
class_assignment = "T"


Now look at this one.
Record `CC[C@H]1OC(=O)[C@H](C)[C@@H](O[C@H]2C[C@@](C)(OC)[C@@H](O)[C@H](C)O2)[C@H](C)[C@@H](O[C@@H]2O[C@H](C)C[C@H](N(C)C)[C@H]2O)[C@](C)(O)C[C@@H](C)CN(CCCNC(=S)Nc2cc(-c3ccccc3)ccc2OC)[C@H](C)[C@@H](O)[C@]1(C)O` : is its IC50 strictly below 0.1 µg/mL? T
